Source listed as ChEMBL document CHEMBL1201862.

System: HT-29
Experiment: NCI tumour cell line growth inhibition, 48 h
Activity calls are given as the source filed them. No stated cut-off is given here; in the data, active = GI50 up to about 1.1 µM and inactive = higher.
VALUE_TYPE: GI50

* CC(C)CC1c2[nH]c3ccccc3c2C[C@H]2C(=O)NC(Cc3c[nH]c4ccccc34)C(=O)N12 (stereo partly specified) | 14.9 µM (inactive)

Which GI50 reading was recorded for the compound COC(=O)c1cc2c3c(ccc2[nH]1)N(C(=O)c1cc2cc(OC)c(OC)c(OC)c2[nH]1)CC3CCl (stereo unspecified) ?
8.55 µM (inactive)

What does the record list as GI50 for Cc1c2ccccc2nc2[nH]c3ccncc3c12 ?
28.2 µM (inactive)

GI50 for CCCCCCCCCCCC1CCCC(C)N1 (stereo unspecified) ?
20.6 µM (inactive)

Field request: GI50 | item: COC(=O)C12C(=O)O[C@H](C)C1(O)C(C)C(=O)N2C (stereo partly specified)
> 100 µM (inactive)

// returns reported GI50 for input Cn1c(=O)c2[nH]cnc2n(CC(N)=O)c1=O
> 100 µM (inactive)
